Where these numbers come from: PubChem BioAssay (NCI)

Assay Name: NCI Yeast Anticancer Drug Screen. Data for the bub3 strain (AID 167)
Run Conditions: S. cerevisiae bub3 mutant strain, at 50.0 µM, stronger effect = higher value
Description: Growth inhibition of yeast strains with defined genetic alterations is measured as a screen for potential anti-cancer activity. Selected strains with alterations in DNA damage repair or cell cycle control were exposed to compounds and growth inhibition was measured relative to vehicle treated controls. The strain used in this assay is bub3
About 79,000 compounds went through this panel and 15% of them were active in at least one assay; those are over-represented in the sample as a whole. Where a SMILES comes first, the peptide text is derived from it. The star is where a group is joined. Trt = c1ccc(C(c2ccccc2)(c2ccccc2)*)cc1; Cbz = O=C(OCc1ccccc1)*
Please provide measured growth inhibition for the entries that follow.
Write the value in % as a bare number.

Field growth inhibition (entry COC(=O)C(CSC(c1ccccc1)(c1ccccc1)c1ccccc1)NC(=O)C(CC(N)=O)NC(=O)OCc1ccccc1 (stereo not drawn) (Cbz-Asn-Cys(Trt)-OMe; configuration not given here) ) reads 68.8

Field growth inhibition (entry CCOC(=O)c1c(I)[nH]c(I)c1C ) reads 38.5

Field growth inhibition (entry O=C1c2ccccc2C(=O)c2sc(Nc3ccc(Cl)cc3)nc21 ) reads 91.6

Field growth inhibition (entry CCc1ccccc1NC(=O)C1=C(C)NC(C)=C(C(=O)Nc2c(CC)cccc2CC)C1c1ccc2c(c1)OCO2 (stereo not given) ) reads 90.3

Field growth inhibition (entry COc1cnn(-c2ccccc2)c(=O)c1SCc1ccc(Cl)c(Cl)c1 ) reads 53

Field growth inhibition (entry O=C(NC(=S)Nc1ncc([N+](=O)[O-])s1)c1ccccc1C(=O)NC(=S)Nc1ncc([N+](=O)[O-])s1 ) reads 75.8

Field growth inhibition (entry COC(=O)c1ncc(Cl)cc1Cl ) reads 38.4

Field growth inhibition (entry N#CC(C#N)=C1CCC(CC2CCCCC2)CC1 (stereo not given) ) reads 98

Field growth inhibition (entry CCN(CC)CCOc1ccc(-c2nc3cc(Cl)ccc3s2)cc1 ) reads 85.7

Field growth inhibition (entry CCCCC(CCc1ccccc1)(C(=O)O)c1ccccc1 (stereo not given) ) reads 99.5

Field growth inhibition (entry Cc1ccc(C(=Nc2ccccc2)N=P(c2ccccc2)(c2ccccc2)c2ccccc2)cc1 ) reads 88.2

Field growth inhibition (entry C=C1C[C@@]2(OC)OCC[C@H]3C(C)=CCC(C1=O)[C@]32C(=O)OC (stereo not given in full) ) reads 98.7

Field growth inhibition (entry CC1OC2CC(=O)OC2C2=C1C(=O)c1c(O)cccc1C2=O (stereo not given) ) reads 91.4

Field growth inhibition (entry O=C1c2cccnc2-c2nccc3c2c1nc1cc(Br)ccc13 ) reads 89.2

Field growth inhibition (entry CSc1ccc2c(c1)S[S@@](=O)N2 ) reads 51.4

Field growth inhibition (entry Nc1ccc2nc3c(nc2c1)C(=O)c1ccccc1-3 ) reads 87.6

Field growth inhibition (entry Cn1cc(NC(=O)Nc2cc(C(=O)Nc3cc(C(=O)Nc4ccc5cc(S(=O)(=O)O)cc(S(=O)(=O)O)c5c4)n(C)c3)n(C)c2)cc1C(=O)Nc1cc(C(=O)Nc2ccc3cc(S(=O)(=O)O)cc(S(=O)(=O)O)c3c2)n(C)c1 ) reads 92.5

Field growth inhibition (entry CC(C)(C)c1ccc(CN2CCN(C(c3ccccc3)c3ccc(Cl)cc3)CC2)cc1 (stereo not given) ) reads -4.4

Field growth inhibition (entry Nc1ccc(-c2nc3ccccc3s2)cc1Br ) reads 52

Field growth inhibition (entry CCOC(=O)c1c(C)[nH]c(C(c2ccccc2)c2[nH]c(C)c(C(=O)OCC)c2C)c1C ) reads 46.2
